Please go through the items and note down their pIC50.
- measured on: human jejunal NK2 receptor (Homo sapiens, UniProt P21452)
- Construct: expressed in transfected cells; host or cells: HSKR-1 cells (mouse 3T3 fibroblasts)
- procedure details: Antagonism of iodinated tachykinin binding to NK2 receptor (125iodohistidyl-1-neurokinin A, HSKR-1 cell membranes)
- details: HSKR-1 cells (mouse 3T3 fibroblasts expressing human jejunal NK2 receptor); mean of several experiments; read-out: NK-2 IC50
- Procedure: The NK1 receptor affinity of proposed tachykinin antagonists was devaluated in guinea pig lungs (Keystone Biologicals, Cleveland, OH), affinity for the NK2 receptor evaluated in HSKR-1 cells (which are mouse 3T3 fibroblasts expressing the human jejunal NK2 receptor) and NK-3 receptor affinity was evaluated in freshly collected guinea pig cerebral cortex. […] Filter bound radioactivity was quantitated in a gamma counter. […]
Scale note: pIC50 = -log10(concentration in M).

Entry COc1ccccc1CC(=O)N1CCC(CCN2CCC(C(N)=O)(c3ccccc3)CC2)(c2ccc(Cl)c(Cl)c2)C1 (stereo not shown) ; pIC50 = 7.13

Entry NC(=O)C1(c2ccccc2)CCN(CCC2(c3ccc4ccccc4c3)CCN(C(=O)c3ccccc3)C2)CC1 (racemic) ; pIC50 = 7.03

Entry NC(=O)C1(c2ccccc2)CCN(CCC2(c3ccc(Cl)c(Cl)c3)CCN(C(=O)c3ccccc3)C2)CC1 (stereo not shown) ; pIC50 = 8.15

Entry O=C(c1ccccc1)N1CCC(CCN2CCC3(CC2)C(=O)NCN3c2ccccc2)(c2ccc(Cl)c(Cl)c2)C1 (stereo not shown) ; pIC50 = 7.96

###

- measured on: NK1 receptor (Cavia porcellus)
- Construct: Tissues or cells were homogenized with a Polytron in 15 volumes of 50 mM Tris-HCl buffer; tissue Keystone Biologicals, Cleveland, OH; host or cells: guinea pig lung membranes
- Sequence (P30547 whole entry): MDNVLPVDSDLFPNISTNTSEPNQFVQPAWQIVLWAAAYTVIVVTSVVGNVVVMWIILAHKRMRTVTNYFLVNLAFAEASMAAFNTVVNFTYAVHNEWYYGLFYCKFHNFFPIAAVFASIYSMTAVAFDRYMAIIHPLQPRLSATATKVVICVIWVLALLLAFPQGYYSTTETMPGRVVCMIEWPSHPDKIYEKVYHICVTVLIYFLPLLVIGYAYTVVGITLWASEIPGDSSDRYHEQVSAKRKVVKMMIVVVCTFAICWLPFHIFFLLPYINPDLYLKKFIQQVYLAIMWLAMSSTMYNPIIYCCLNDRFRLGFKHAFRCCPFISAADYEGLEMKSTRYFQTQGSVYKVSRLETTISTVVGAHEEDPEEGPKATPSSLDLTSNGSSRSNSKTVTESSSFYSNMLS
- procedure details: Antagonism of iodinated tachykinin binding to NK1 receptor (125I-Bolton Hunter Lys-3 labeled substance P, guinea pig lung membranes)
- details: guinea pig lungs; mean of several experiments; read-out: NK-1 IC50
- Method: The NK1 receptor affinity of proposed tachykinin antagonists was devaluated in guinea pig lungs (Keystone Biologicals, Cleveland, OH), affinity for the NK2 receptor evaluated in HSKR-1 cells (which are mouse 3T3 fibroblasts expressing the human jejunal NK2 receptor) and NK-3 receptor affinity was evaluated in freshly collected guinea pig cerebral cortex. […] Filter bound radioactivity was quantitated in a gamma counter. […]
One threshold, 300 nM, splits the recorded IC50 values: lower ones are class 1, equal or higher ones are class 0.

Given the entry COC(=O)CC[C@H](NC(=O)C1(c2ccccc2)CCN(CCC2(c3ccc(Cl)c(Cl)c3)CCN(C(=O)c3ccccc3)C2)CC1)C(=O)OC (some centres unmarked) [Example 6] , would its reported IC50 be below 300 nM?
class 1

Given the entry NC(=O)C1(c2ccccc2)CCN(CCC2(c3ccc4ccccc4c3)CC(=O)N(Cc3ccccc3)C2)CC1 (racemic) [Example 12] , would its reported IC50 be below 300 nM?
class 0

Given the entry NC(=O)C1(c2ccccc2)CCN(CCC2(c3ccc(Cl)c(Cl)c3)CC(=O)N(Cc3ccccc3)C2)CC1 (centres unmarked) [Example 11] , would its reported IC50 be below 300 nM?
class 1

Given the entry COc1cccc(OC)c1C(=O)N1CCC(CCN2CCC3(CC2)C(=O)NCN3c2ccccc2)(c2ccc(Cl)c(Cl)c2)C1 (centres unmarked) [Example 9] , would its reported IC50 be below 300 nM?
class 1

Given the entry O=C(c1ccccc1)N1CCC(CCN2CCC3(CC2)C(=O)NCN3c2ccccc2)(c2ccc(Cl)c(Cl)c2)C1 (centres unmarked) [Example 10] , would its reported IC50 be below 300 nM?
class 1

Given the entry COC(=O)[C@@H](NC(=O)C1(c2ccccc2)CCN(CCC2(c3ccc(Cl)c(Cl)c3)CCN(C(=O)c3ccccc3)C2)CC1)[C@@H](C)O (some centres unmarked) [Example 7] , would its reported IC50 be below 300 nM?
class 1

Given the entry COc1ccc(C(=O)N2CCC(CCN3CCC(C(N)=O)(c4ccccc4)CC3)(c3ccc(Cl)c(Cl)c3)C2)c(OC)c1 (centres unmarked) [Example 2] , would its reported IC50 be below 300 nM?
class 1

Given the entry NC(=O)C1(c2ccccc2)CCN(CCC2(c3ccc4ccccc4c3)CCN(C(=O)c3ccccc3)C2)CC1 (racemic) [Example 8] , would its reported IC50 be below 300 nM?
class 0

###

- measured on: NK1 receptor (Cavia porcellus)
- Construct: Tissues or cells were homogenized with a Polytron in 15 volumes of 50 mM Tris-HCl buffer; tissue Keystone Biologicals, Cleveland, OH; host or cells: guinea pig lung membranes
- procedure details: Antagonism of iodinated tachykinin binding to NK1 receptor (125I-Bolton Hunter Lys-3 labeled substance P, guinea pig lung membranes)
Structures can show the parent of a compound that is named as a salt.
quantity measured: IC50 (nM)
The reply should contain only the number, in nM.

Entry COc1cc(C(=O)N2CCC(CCN3CCC(C(N)=O)(c4ccccc4)CC3)(c3ccccc3)C2)cc(OC)c1OC (stereo not drawn) [Example 22A, hydrochloride] ; IC50 = 17.4

Entry COc1cccc(OC)c1C(=O)N1CCC(CCN2CCC(C(N)=O)(c3ccccc3)CC2)(c2ccc(Cl)c(Cl)c2)C1 (stereo not drawn) [Example 5] ; IC50 = 20

Entry COc1cccc(OC)c1C(=O)N1CCC(CCN2CCC(C(N)=O)(c3ccccc3)CC2)(c2ccc(Cl)c(Cl)c2)C1 (racemic) [Example 5A, hydrochloride] ; IC50 = 20

Entry COc1cc(C(=O)N2CCC(CCN3CCC(C(N)=O)(c4ccccc4)CC3)(c3ccc(Cl)c(Cl)c3)C2)cc(OC)c1OC (racemic) [Example 3A, hydrochloride] ; IC50 = 5.97

Entry COc1ccc(C2(CCN3CCC(C(N)=O)(c4ccccc4)CC3)CCN(C(=O)c3cc(OC)c(OC)c(OC)c3)C2)cc1OC (stereo not drawn) [Example 23] ; IC50 = 20

Entry COc1cc(C(=O)N2CCC(CCN3CCC(C(N)=O)(c4ccccc4)CC3)(c3ccc(Cl)c(Cl)c3)C2)cc(OC)c1OC (stereo not drawn) [Example 3] ; IC50 = 5

###

- measured on: human jejunal NK2 receptor (Homo sapiens)
- Construct: expressed in transfected cells; host or cells: HSKR-1 cells (mouse 3T3 fibroblasts)
- Sequence (P21452 1-398): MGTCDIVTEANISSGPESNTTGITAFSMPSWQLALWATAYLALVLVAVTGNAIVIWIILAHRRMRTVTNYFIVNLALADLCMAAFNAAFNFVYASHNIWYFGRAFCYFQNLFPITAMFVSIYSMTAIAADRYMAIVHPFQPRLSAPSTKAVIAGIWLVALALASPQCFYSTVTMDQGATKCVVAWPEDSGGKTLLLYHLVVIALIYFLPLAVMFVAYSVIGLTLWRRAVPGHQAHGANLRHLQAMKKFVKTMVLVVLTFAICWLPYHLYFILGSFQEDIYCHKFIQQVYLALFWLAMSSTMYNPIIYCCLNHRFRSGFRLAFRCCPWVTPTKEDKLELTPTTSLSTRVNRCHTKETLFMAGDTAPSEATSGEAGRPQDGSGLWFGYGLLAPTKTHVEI
- procedure details: Antagonism of iodinated tachykinin binding to NK2 receptor (125iodohistidyl-1-neurokinin A, HSKR-1 cell membranes)
Where a name gives a salt, the structure may show the parent alone.
Please go through the items and note down their IC50.
The reply should contain only the number, in nM.

Entry COc1cc(C(=O)N2CCC(CCN3CCC(C(N)=O)(c4ccccc4)CC3)(c3ccc(Cl)c(Cl)c3)C2)cc(OC)c1OC (stereo not shown) [Example 3] ; IC50 = 15

Entry COC(=O)CC[C@H](NC(=O)C1(c2ccccc2)CCN(CCC2(c3ccc(Cl)c(Cl)c3)CCN(C(=O)c3ccccc3)C2)CC1)C(=O)OC (stereo partly shown) ; IC50 = 15

Entry COc1cc(C(=O)N2CCC(CCN3CCC(C(N)=O)(c4ccccc4)CC3)(c3ccccc3)C2)cc(OC)c1OC (stereo not shown) [Example 22A, hydrochloride] ; IC50 = 1190

Entry COc1cc(C(=O)N2CCC(CCN3CCC(C(N)=O)(c4ccccc4)CC3)(c3ccc(Cl)c(Cl)c3)C2)cc(OC)c1OC (racemic) [Example 3A, hydrochloride] ; IC50 = 21

Where do the numbers come from? From patent EP0696280B1.
